Measured values drawn from ChEMBL document CHEMBL4411276 for this set.

The compounds listed here are annotated with their viability at 24 h.
# Method Description: Cytotoxicity against mouse BV2 cells assessed as cell survival after 24 hrs by MTT assay relative to control
# Assay type: cell-based, BV-2
# Design: concentration or dose not given beside the values
# Experimental Setup: read-out: Survival

Compound: O=C1C=CC2(C=C1)OCC(Cc1ccc(Cl)cc1)C(=O)N2c1ccccc1 (stereo not given)
viability at 24 h, %: 91

Compound: O=C1C=CC2(C=C1)OCC(Cc1c(F)cccc1C(F)(F)F)C(=O)N2c1ccccc1 (stereo not given)
viability at 24 h, %: 84.4

Compound: O=C1C=CC2(C=C1)OCC(Cc1cc(C(F)(F)F)cc(C(F)(F)F)c1)C(=O)N2c1ccccc1 (stereo not given)
viability at 24 h, %: 85.4

Compound: O=C1C=CC2(C=C1)OCC(Cc1ccc(C(F)(F)F)cc1)C(=O)N2c1ccccc1 (stereo not given)
viability at 24 h, %: 87.1

Compound: CC1COC2(C=CC(=O)C=C2)N(c2ccccc2)C1=O (stereo not given)
viability at 24 h, %: 86.1

Compound: O=C1C=CC2(C=C1)OCC(Cc1cc(C(F)(F)F)ccc1Cl)C(=O)N2c1ccccc1 (stereo not given)
viability at 24 h, %: 70.5

Compound: O=C1C=CC2(C=C1)OCC(Cc1ccc([N+](=O)[O-])cc1)C(=O)N2c1ccccc1 (stereo not given)
viability at 24 h, %: 95.5

Compound: O=C1C=CC2(C=C1)OCCC(=O)N2c1ccccc1
viability at 24 h, %: 102

Compound: Cc1cc(C)cc(CC2COC3(C=CC(=O)C=C3)N(c3ccccc3)C2=O)c1 (stereo not given)
viability at 24 h, %: 94.2

Compound: O=C1C=CC2(C=C1)OCC(Cc1ccccc1)C(=O)N2c1ccccc1 (stereo not given)
viability at 24 h, %: 82.1

----------
# Method Description: Cytotoxicity against LPS-stimulated mouse BV2 cells assessed as cell survival after 24 hrs by MTT assay relative to control
# Format: cell-based, BV-2
# Design: concentration or dose not given beside the values
# Experimental Setup: read-out: Survival
The compounds listed here are annotated with their viability at 24 h.

Compound: C=C(C)CC1COC2(C=CC(=O)C=C2)N(c2ccccc2)C1=O (stereo unspecified)
viability at 24 h / %: 80.1
//
Compound: CC1COC2(C=CC(=O)C=C2)N(c2ccccc2)C1=O (stereo unspecified)
viability at 24 h / %: 72.8
//
Compound: Cc1cc(C)cc(CC2COC3(C=CC(=O)C=C3)N(c3ccccc3)C2=O)c1 (stereo unspecified)
viability at 24 h / %: 78
//
Compound: O=C1C=CC2(C=C1)OCC(Cc1ccc(Cl)cc1)C(=O)N2c1ccccc1 (stereo unspecified)
viability at 24 h / %: 79
//
Compound: O=C1C=CC2(C=C1)OCC(Cc1ccccc1)C(=O)N2c1ccccc1 (stereo unspecified)
viability at 24 h / %: 76.1
//
Compound: O=C1C=CC2(C=C1)OCC(Cc1ccc(Br)cc1)C(=O)N2c1ccccc1 (stereo unspecified)
viability at 24 h / %: 72
